- System: U2OS
- Experiment summary: Multiplex assay against U2OS
- Type: toxicity, cell-based
- Run conditions: human, 48 h, 1 µM, compound concentration 1 uM, replicate 1
Endpoint label: Population Mitotic Cells (%)
The reply should be a number in %, with the unit left off.

* CN1CCN2c3ncccc3Cc3ccccc3C2C1 (stereo not drawn) | 16
* CC(=O)NCCc1c(Cc2ccccc2)[nH]c2ccccc12 | 8
* CSCC[C@H](NC=O)C(=O)N[C@@H](CC(C)C)C(=O)N[C@@H](Cc1ccccc1)C(=O)O | 15
* COc1cc(C(=O)N(CCCc2ccccc2)Cc2ccc(CC(=O)O)cc2)cc(OC)c1C | 13
* C[C@H]1[C@H]2CC[C@H]3[C@@H]4CC=C5C[C@@H](N(C)C)CC[C@]5(C)[C@H]4CC[C@]23CN1C | 16
* O=C(NCCO)c1cccc(-c2cc(Nc3ccc(OC(F)(F)F)cc3)ncn2)c1 | 11

Population Mitotic Cells (%) of Cc1nc2ccc(Oc3ccc(F)cc3)cc2c(=O)n1C[C@H]1CCCN(C(C)C)C1.Cl , assay on U2OS, is 15

Population Mitotic Cells (%) of CCOc1c2c(c(OCC)c3ncccc13)CN(c1ccc(CS(=O)(=O)NC(=O)Cc3ccccc3OC)cc1C)C2=O , assay on U2OS, is 15

Population Mitotic Cells (%) of O=S(=O)(c1ccccc1)c1cnc2c(N3CCNCC3)cccc2c1 [INTEPIRDINE] , assay on U2OS, is 10

Population Mitotic Cells (%) of C[C@H](NC(=O)c1c(C(F)F)nn(C)c1Oc1cccc(C(F)(F)F)c1)c1ccc(C(=O)O)cc1 , assay on U2OS, is 17

Population Mitotic Cells (%) of COc1c(C)cc(NC(=O)c2nn(Cc3ccc(F)cc3)c3c2CN(C(=O)c2ccc[nH]2)C[C@]3(C)C(N)=O)cc1C , assay on U2OS, is 20

Attribution: ChEMBL document CHEMBL5058577
